Test system: ECHCG (Echinochloa crus-galli)
assay_overview: Preemergence herbicidal evaluation
Type: in vivo, (L.) Beau
measurement_parameters: Rate 0.0620 kg/ha; preemergence; rated 4-5 weeks after treatment
Entries and their ECHCG preemergence herbicidal rating
Give the figure only, with no unit attached.

| compound | ECHCG preemergence herbicidal rating |
| --- | --- |
| CN(C(=O)c1nsc2ccc(-n3c(=O)cc(C(F)(F)F)n(C)c3=O)cc12)c1ccc(Cl)cc1 | 0.0 |
| Cc1cscc1-c1nsc2ccc(-n3c(=O)cc(C(F)(F)F)n(C)c3=O)cc12 | 6.5 |
| COC(=O)COc1ccsc1-c1nsc2ccc(-n3c(=O)cc(C(F)(F)F)n(C)c3=O)cc12 | 0.0 |
| Cn1c(C(F)(F)F)cc(=O)n(-c2ccc3snc(C(SCCO)SCCO)c3c2)c1=O | 0.0 |

Exam item: // lookup ECHCG preemergence herbicidal rating for COC(=O)C(C)Oc1ccsc1-c1nsc2ccc(-n3c(=O)cc(C(F)(F)F)n(C)c3=O)cc12 (centres unmarked)
Marked response: 0.0

Exam item: Also "Cc1ccc(-c2nsc3ccc(N4C(=O)C5=C(CCCC5)C4=O)cc23)s1" ?
Marked response: 0.0

Exam item: Try this compound next: "Cc1nnc(-c2nsc3ccc(-n4c(=O)cc(C(F)(F)F)n(C)c4=O)cc23)s1"
Marked response: 0.0

Exam item: Field entry: "Cn1ccnc1-c1nsc2ccc(-n3c(=O)cc(C(F)(F)F)n(C)c3=O)cc12"
Marked response: 2.5

###

System: SAGPY (Sagittaria pygmaea)
assay_overview: Flooded paddy, preemergence weed control
Format: in vivo, L.
measurement_parameters: rate 0.1250 kg/ha, rated 3-4 weeks after treatment, 0-9 rating scale
Method: Results of herbicide evaluation are expressed on a rating scale (0-9). The scale is based upon a visual observation of plant stand, vigor, malformation, size, chlorosis and overall plant appearance as compared with a control. Preemergence herbicidal activity under flooded paddy conditions is determined as follows: plant seeds or propagating organs are planted in the top 0.5 cm of silt loam soil in 32 oz. plastic containers with a diameter of 10.5 cm and no drainage holes. […]
measurement_kind: herbicidal rating, SAGPY
Answer as a number with no unit attached.

Recorded herbicidal rating, SAGPY, per entry:
| compound | herbicidal rating, SAGPY |
| --- | --- |
| CC1CC(C)(C)OC(c2nsc3ccc(-n4c(=O)cc(C(F)(F)F)n(C)c4=O)cc23)O1 (centres unmarked) | 7.0 |
| Cc1nnc(-c2nsc3ccc(-n4c(=O)cc(C(F)(F)F)n(C)c4=O)cc23)s1 | 5.5 |
| Cn1c(C(F)(F)F)cc(=O)n(-c2ccc3snc(C4OCCS4)c3c2)c1=O (centres unmarked) | 9.0 |

Exam item: Name the reported herbicidal rating, SAGPY value associated with the compound CCOC(=O)C1CS[C@H](c2nsc3ccc(-n4c(=O)cc(C(F)(F)F)n(C)c4=O)cc23)N1 (some centres unmarked)
Marked response: 0.0

Exam item: Further, for "Cn1ccnc1-c1nsc2ccc(-n3c(=O)cc(C(F)(F)F)n(C)c3=O)cc12" ?
Marked response: 0.0

Exam item: Try "Cn1c(C(F)(F)F)cc(=O)n(-c2ccc3snc(-c4ccco4)c3c2)c1=O" next.
Marked response: 2.5

Exam item: Next compound: CSCC1COC(c2nsc3ccc(-n4c(=O)cc(C(F)(F)F)n(C)c4=O)cc23)O1 (centres unmarked)
Marked response: 4.0

Exam item: Try the compound "Cc1sccc1-c1nsc2ccc(-n3c(=O)cc(C(F)(F)F)n(C)c3=O)cc12"
Marked response: 9.0
